The reader will find pIC50 measurements below, all made with Replicase polyprotein 1ab (Severe acute respiratory syndrome coronavirus 2).
pIC50: −log10 of the molar value.

{"compound": "Cc1ccc(C2C3=C(CC(C)CC3=O)Nc3cc([N+](=O)[O-])ccc3N2C(=O)CCl)cc1 (stereo not given)", "pIC50": 5.47}
{"compound": "CC1CC(=O)C2=C(C1)Nc1cc([N+](=O)[O-])ccc1N(C(=O)CCl)C2C1CCCCC1 (stereo not given)", "pIC50": 5.44}
{"compound": "CC1CC(=O)C2=C(C1)Nc1cc([N+](=O)[O-])ccc1N(C(=O)CCl)C2C1CC1 (stereo not given)", "pIC50": 5.04}
{"compound": "CC1(C)CC(=O)C2=C(C1)Nc1cc([N+](=O)[O-])ccc1N(C(=O)CCl)C2", "pIC50": 4.61}
{"compound": "CC1CC(=O)C2=C(C1)Nc1cc([N+](=O)[O-])ccc1N(C(=O)CCl)C2c1ccccc1 (stereo not given)", "pIC50": 5.47}

====

# subject.of.test: Replicase polyprotein 1ab (Severe acute respiratory syndrome coronavirus 2, UniProt P0DTD1)
One threshold, 2 µM, splits the recorded IC50 values: lower ones are true, equal or higher ones are false.

{"compound": "CC1C2=C(CC(C)(C)CC2=O)Nc2cc([N+](=O)[O-])ccc2N1C(=O)CCl (stereo not drawn)", "assigned.category": "false"}
{"compound": "CC1(C)CC(=O)C2=C(C1)Nc1cc([N+](=O)[O-])ccc1N(C(=O)CCl)C2c1ccccc1 (stereo not drawn)", "assigned.category": "false"}
{"compound": "O=C1CCCC2=C1C(c1ccccc1)N(C(=O)CCl)c1ccc([N+](=O)[O-])cc1N2 (stereo not drawn)", "assigned.category": "true"}
{"compound": "O=C1CCCC2=C1C(C1CCC1)N(C(=O)CCl)c1ccc([N+](=O)[O-])cc1N2 (stereo not drawn)", "assigned.category": "false"}
{"compound": "COc1ccc(C2C3=C(CC(C)CC3=O)Nc3cc([N+](=O)[O-])ccc3N2C(=O)CCl)cc1 (stereo not drawn)", "assigned.category": "false"}
{"compound": "N#Cc1ccc2c(c1)NC1=C(C(=O)CCC1)C(c1ccc(C(F)(F)F)cc1)N2C(=O)CCl (stereo not drawn)", "assigned.category": "true"}
{"compound": "CC1C2=C(CCCC2=O)Nc2cc([N+](=O)[O-])ccc2N1C(=O)CCl (stereo not drawn)", "assigned.category": "false"}
{"compound": "COC(=O)c1ccc2c(c1)NC1=C(C(=O)CCC1)C(c1ccc(C(F)(F)F)cc1)N2C(=O)CCl (stereo not drawn)", "assigned.category": "true"}
{"compound": "O=C1CCCC2=C1C(C1CCCCC1)N(C(=O)CCl)c1ccc([N+](=O)[O-])cc1N2 (stereo not drawn)", "assigned.category": "true"}
{"compound": "CC1CC(=O)C2=C(C1)Nc1cc([N+](=O)[O-])ccc1N(C(=O)CCl)C2C1CCC1 (stereo not drawn)", "assigned.category": "false"}
{"compound": "CC1CC(=O)C2=C(C1)Nc1cc([N+](=O)[O-])ccc1N(C(=O)CCl)C2 (stereo not drawn)", "assigned.category": "false"}
{"compound": "CC1(C)CC(=O)C2=C(C1)Nc1cc([N+](=O)[O-])ccc1N(C(=O)CCl)C2C1CCC1 (stereo not drawn)", "assigned.category": "false"}
{"compound": "O=C1CCCC2=C1C(c1ccc(F)cc1F)N(C(=O)CCl)c1ccc([N+](=O)[O-])cc1N2 (stereo not drawn)", "assigned.category": "false"}
{"compound": "CC1(C)CC(=O)C2=C(C1)Nc1cc([N+](=O)[O-])ccc1N(C(=O)CCl)C2c1ccc(F)cc1F (stereo not drawn)", "assigned.category": "false"}
{"compound": "CC1CC(=O)C2=C(C1)Nc1cc([N+](=O)[O-])ccc1N(C(=O)CCl)C2c1ccc(C(F)(F)F)cc1 (stereo not drawn)", "assigned.category": "false"}
{"compound": "Cc1ccc(C2C3=C(CCCC3=O)Nc3cc([N+](=O)[O-])ccc3N2C(=O)CCl)cc1 (stereo not drawn)", "assigned.category": "false"}
{"compound": "CC1CC(=O)C2=C(C1)Nc1cc([N+](=O)[O-])ccc1N(C(=O)CCl)C2C (stereo not drawn)", "assigned.category": "false"}
{"compound": "Cc1ccc(C2C3=C(CC(C)(C)CC3=O)Nc3cc([N+](=O)[O-])ccc3N2C(=O)CCl)cc1 (stereo not drawn)", "assigned.category": "false"}
